// data source = ChEMBL document CHEMBL3885861

# Species on record: Rattus norvegicus
# Experiment: Open TG-GATES - Regimen: Single
# Type: toxicity, organism-based, Sprague-Dawley
# Parameters: regimen Single, gender Male, age 6 weeks
# Test conditions: in vivo, po, 0 mg/kg, 9 h, tissue Plasma, route gavage, dose level Control
Known CRE of a selection of compounds
// units = mg/dL; emit number, no label

Past entries and their recorded results:
Compound | Recorded value
Clc1ccccc1CN1CCc2sccc2C1 | 0.4
Cn1c(=O)c2[nH]cnc2n(C)c1=O.O | 0.2
O=C(O)c1cn(C2CC2)c2cc(N3CCNCC3)c(F)cc2c1=O | 0.5

IN: Can you look up the measured CRE of `C[C@H](CS)C(=O)N1CCC[C@H]1C(=O)O` for me?
OUT: 0.4

IN: Can you look up the measured CRE of `COc1ccc(Cc2nccc3cc(OC)c(OC)cc23)cc1OC` for me?
OUT: 0.1

IN: Can you look up the measured CRE of NC(=O)N1c2ccccc2C=Cc2ccccc21 [CARBAMAZEPINE] for me?
OUT: 0.4

IN: Can you look up the measured CRE of `CN(C)CCC=C1c2ccccc2CCc2ccccc21` for me?
OUT: 0.2

IN: Can you look up the measured CRE of CCc1cc(C(N)=S)ccn1 [ETHIONAMIDE] for me?
OUT: 0.5

IN: Can you look up the measured CRE of `CC(=O)Oc1ccccc1C(=O)O` for me?
OUT: 0.4

IN: Can you look up the measured CRE of `NC(=O)N/N=C/c1ccc([N+](=O)[O-])o1` for me?
OUT: 0.2

IN: Can you look up the measured CRE of CSc1ccc2c(c1)N(CCC1CCCCN1C)c1ccccc1S2 (configuration not stated) for me?
OUT: 0.5

IN: Can you look up the measured CRE of `O=C(O)c1cc(/N=N/c2ccc(S(=O)(=O)Nc3ccccn3)cc2)ccc1O` for me?
OUT: 0.4

* * *

Known WBC of a selection of molecules
# Organism: Rattus norvegicus
# Experiment: Open TG-GATES - Regimen: Daily Repeat
# Format: toxicity, organism-based, Sprague-Dawley
# Parameters: regimen Daily Repeat, gender Male, age 6 weeks
# Test conditions: in vivo, po, 0 mg/kg, […], tissue Blood, route gavage, dose level Control, time 7 day
// units = x10_2/uL; emit number, no label

Molecule | Unit name | WBC
NC(=O)N/N=C/c1ccc([N+](=O)[O-])o1 | x10_2/uL | 96.1
Cn1c(=O)c2[nH]cnc2n(C)c1=O.O | x10_2/uL | 113.8
CN(C)CCC=C1c2ccccc2CCc2ccccc21 | x10_2/uL | 86.3
NC(=O)N1c2ccccc2C=Cc2ccccc21 [CARBAMAZEPINE] | x10_2/uL | 90.9
O=C(O)c1cn(C2CC2)c2cc(N3CCNCC3)c(F)cc2c1=O | x10_2/uL | 121.2

IN: Can you look up the measured WBC of `O=C(O)c1cc(/N=N/c2ccc(S(=O)(=O)Nc3ccccn3)cc2)ccc1O` for me?
OUT: 126

* * *

Known Fbg of a selection of compounds
# Organism: Rattus norvegicus
# Experiment: Open TG-GATES - Regimen: Single
# Assay type: toxicity, organism-based, Sprague-Dawley
# Design: regimen Single, gender Male, age 6 weeks
# Test conditions: in vivo, po, 0 mg/kg, 6 h, tissue Blood, route gavage, dose level Control
// units = mg/dL; emit number, no label

Past entries and their recorded results:
Compound | Recorded value
O=C(O)c1cn(C2CC2)c2cc(N3CCNCC3)c(F)cc2c1=O | 211
O=C(O)c1cc(/N=N/c2ccc(S(=O)(=O)Nc3ccccn3)cc2)ccc1O | 224
CC(=O)Oc1ccccc1C(=O)O | 235
CCc1cc(C(N)=S)ccn1 [ETHIONAMIDE] | 221.6
Clc1ccccc1CN1CCc2sccc2C1 | 214.6
COc1ccc(Cc2nccc3cc(OC)c(OC)cc23)cc1OC | 325.8

IN: Can you look up the measured Fbg of NC(=O)N1c2ccccc2C=Cc2ccccc21 [CARBAMAZEPINE] for me?
OUT: 220.2

IN: Can you look up the measured Fbg of `CN(C)CCC=C1c2ccccc2CCc2ccccc21` for me?
OUT: 256.2

IN: Can you look up the measured Fbg of `NC(=O)N/N=C/c1ccc([N+](=O)[O-])o1` for me?
OUT: 266.6

IN: Can you look up the measured Fbg of `Cn1c(=O)c2[nH]cnc2n(C)c1=O.O` for me?
OUT: 300.6

IN: Can you look up the measured Fbg of CSc1ccc2c(c1)N(CCC1CCCCN1C)c1ccccc1S2 (stereo unspecified) for me?
OUT: 216.8

* * *

# Species on record: Rattus norvegicus
# Experiment: Open TG-GATES - Regimen: Single
# Format: toxicity, organism-based, Sprague-Dawley
# Design: regimen Single, gender Male, age 6 weeks
# Test conditions: in vivo, po, 100 mg/kg, 9 h, tissue Blood, route gavage, dose level Low
Mono less than 5% is true; Mono greater than or equal to 5% is false.

Recorded results for 4 compounds are shown here.
Compound | Assigned label
O=C(O)c1cn(C2CC2)c2cc(N3CCNCC3)c(F)cc2c1=O [CIPROFLOXACIN] | false
O=C(O)c1cc(/N=N/c2ccc(S(=O)(=O)Nc3ccccn3)cc2)ccc1O [SULFASALAZINE] | true
CCc1cc(C(N)=S)ccn1 [ETHIONAMIDE] | false
C[C@H](CS)C(=O)N1CCC[C@H]1C(=O)O [CAPTOPRIL] | false

Now look at this one.
IN: Please state whether Mono is below 5% for Clc1ccccc1CN1CCc2sccc2C1 [TICLOPIDINE]
OUT: true

* * *

# Species: Rattus norvegicus
# Experiment: Open TG-GATES - Regimen: Single
# Type: toxicity, organism-based, Sprague-Dawley
# Parameters: regimen Single, gender Male, age 6 weeks
# Test conditions: in vivo, po, 1000 mg/kg, 9 h, tissue Plasma, route gavage, dose level High
Known gamma-GTP of a selection of molecules
// units = IU/L; emit number, no label

Past entries and their recorded results:
Molecule | gamma-GTP, IU/L
C[C@H](CS)C(=O)N1CCC[C@H]1C(=O)O [CAPTOPRIL] | 1.8
Clc1ccccc1CN1CCc2sccc2C1 [TICLOPIDINE] | 1
CCc1cc(C(N)=S)ccn1 [ETHIONAMIDE] | 1.2
O=C(O)c1cn(C2CC2)c2cc(N3CCNCC3)c(F)cc2c1=O [CIPROFLOXACIN] | 1.4

IN: Can you look up the measured gamma-GTP of O=C(O)c1cc(/N=N/c2ccc(S(=O)(=O)Nc3ccccn3)cc2)ccc1O [SULFASALAZINE] for me?
OUT: 1.4

* * *

# Species: Rattus norvegicus
# Experiment: Open TG-GATES - Regimen: Single
# Assay type: toxicity, organism-based, Sprague-Dawley
# Design: regimen Single, gender Male, age 6 weeks
# Test conditions: in vivo, po, 300 mg/kg, 24 h, tissue Blood, route gavage, dose level Middle
Quantity: Neu
Please append the unit to your numeric answer.

Past entries and their recorded results:
Compound | Neu
C[C@H](CS)C(=O)N1CCC[C@H]1C(=O)O | 10%
O=C(O)c1cc(/N=N/c2ccc(S(=O)(=O)Nc3ccccn3)cc2)ccc1O | 19.8%
CCc1cc(C(N)=S)ccn1 [ETHIONAMIDE] | 23.2%

Okay, now this compound:
IN: Can you look up the measured Neu of `Clc1ccccc1CN1CCc2sccc2C1` for me?
OUT: 14.6%

* * *

Known RALB of a selection of compounds
# Species on record: Rattus norvegicus
# Experiment: Open TG-GATES - Regimen: Daily Repeat
# Format: toxicity, organism-based, Sprague-Dawley
# Parameters: regimen Daily Repeat, gender Male, age 6 weeks
# Test conditions: in vivo, po, 0 mg/kg, […], tissue Plasma, route gavage, dose level Control, time 28 day
// units = g/dL; emit number, no label

Past entries and their recorded results:
Compound | Quantity | Recorded value
CN(C)CCC=C1c2ccccc2CCc2ccccc21 [AMITRIPTYLINE] | RALB | 2.8
CCCC(CCC)C(=O)O [VALPROIC ACID] | RALB | 3.5
C[C@H](CS)C(=O)N1CCC[C@H]1C(=O)O [CAPTOPRIL] | RALB | 3.9
CC(=O)Oc1ccccc1C(=O)O [ASPIRIN] | RALB | 3.4

Okay, now this compound:
IN: Can you look up the measured RALB of CO[C@H]1/C=C/O[C@@]2(C)Oc3c(C)c(O)c4c(O)c(c(/C=N/N5CCN(C)CC5)c(O)c4c3C2=O)NC(=O)/C(C)=C\C=C\[C@H](C)[C@H](O)[C@@H](C)[C@@H](O)[C@@H](C)[C@H](OC(C)=O)[C@@H]1C [RIFAMPIN] for me?
OUT: 4

* * *

Known Lym of a selection of compounds
# Species: Rattus norvegicus
# Experiment: Open TG-GATES - Regimen: Single
# Type: toxicity, organism-based, Sprague-Dawley
# Design: regimen Single, gender Male, age 6 weeks
# Test conditions: in vivo, po, 1000 mg/kg, 3 h, tissue Blood, route gavage, dose level High
// units = %; emit number, no label

Past entries and their recorded results:
Compound | Unit name | Recorded value
O=C(O)c1cc(/N=N/c2ccc(S(=O)(=O)Nc3ccccn3)cc2)ccc1O | % | 72.2
CCc1cc(C(N)=S)ccn1 [ETHIONAMIDE] | % | 70.8

IN: Can you look up the measured Lym of `O=C(O)c1cn(C2CC2)c2cc(N3CCNCC3)c(F)cc2c1=O` for me?
OUT: 80.4

IN: Can you look up the measured Lym of `Clc1ccccc1CN1CCc2sccc2C1` for me?
OUT: 73.2

IN: Can you look up the measured Lym of `C[C@H](CS)C(=O)N1CCC[C@H]1C(=O)O` for me?
OUT: 76.8
